System: Influenza A virus
Assay: Antiviral activity against influenza virus type A H1N1 in MDCK cells assessed as inhibition of virus-induced cytopathic effect
Format: functional, organism-based
Exercise: state measured CC50 for each of the compounds provided.
Use µg/mL as the unit, but write only the number.

Query: CC50; subject: `O=c1c(O[C@@H]2O[C@H](CO)[C@@H](O)[C@H](O)[C@H]2O[C@@H]2OC[C@@H](O)[C@H](O)[C@H]2O)c(-c2ccc(O)cc2)oc2cc(O)cc(O)c12`
46.9

Next compound: C[C@@H]1O[C@@H](OC[C@H]2O[C@@H](Oc3c(-c4ccc(O)c(O[C@@H]5O[C@H](CO)[C@@H](O)[C@H](O)[C@H]5O)c4)oc4cc(O)cc(O)c4c3=O)[C@H](O[C@@H]3OC[C@@H](O)[C@H](O)[C@H]3O)[C@@H](O)[C@@H]2O)[C@H](O)[C@H](O)[C@H]1O [AESCUFLAVOSIDE]
108

Repeat with `O=c1c(O[C@@H]2O[C@H](CO[C@@H]3O[C@H](CO)[C@@H](O)[C@H](O)[C@H]3O)[C@@H](O)[C@H](O)[C@H]2O[C@@H]2OC[C@@H](O)[C@H](O)[C@H]2O)c(-c2ccc(O)cc2)oc2cc(O)cc(O)c12`
107

Further, for `C[C@@H]1O[C@@H](Oc2c(-c3ccc(O)cc3)oc3cc(O)cc(O)c3c2=O)[C@H](O)[C@H](O)[C@H]1O[C@@H]1O[C@H](CO)[C@@H](O)[C@H](O)[C@H]1O` ?
375
